System: HTT mRNA
PROCEDURE TEXT: RT-qPCR splicing assay, HTT mRNA canonical (CJ) and alternative (AJ) junction
Assay type: cell-based, human
ASSAY CONTEXT: Homo sapiens, RT-qPCR, HTT canonical junction mRNA decrease; read-out: HTT CJ (decrease in canonical junction mRNA, IC50)
Kindly supply the reported IC50 values for the records listed here.

## Task Enter measured IC50, system HTT mRNA, for the compound shown: Cc1nc(-c2cc(F)c3nn(C)cc3c2)nc2ccc(N3C[C@@H](C)N[C@@H](C)C3)cc12
## Result > 10 µM

## Task Enter measured IC50, system HTT mRNA, for the compound shown: C[C@@H]1CN(c2ccc3nc(-c4cc5cn(C)nc5cc4O)nc(C4CCC4)c3c2)C[C@H](C)N1
## Result 1 to 10 µM

## Task Enter measured IC50, system HTT mRNA, for the compound shown: CCc1nc2cc(O)c(-c3ccc4nc(N5CC[C@@H](NC(C)(C)C)C5)ccc4n3)cc2o1 (single isomer, unassigned)
## Result 1 to 10 µM

## Task Enter measured IC50, system HTT mRNA, for the compound shown: C[C@@H]1CN(c2ccc3nc(-c4cc(F)c5nncn5c4)ncc3c2)C[C@H](C)N1
## Result 1 to 10 µM

## Task Enter measured IC50, system HTT mRNA, for the compound shown: C[C@H]1CN(c2cc(F)c3nc(-c4cc5cn(C)nc5cc4O)ccc3c2)C[C@H](C)N1 (single isomer, unassigned)
## Result 0.1 to 1 µM

## Task Enter measured IC50, system HTT mRNA, for the compound shown: Cn1cc2cc(-c3ncc4cc(N5CCC(N6CCC6)CC5)ccc4n3)cc(F)c2n1
## Result 1 to 10 µM

## Task Enter measured IC50, system HTT mRNA, for the compound shown: CCc1cn2cc(-c3ncc4cc(N5C[C@@H](C)N[C@@H](C)C5)ccc4n3)cc(F)c2n1
## Result 1 to 10 µM

## Task Enter measured IC50, system HTT mRNA, for the compound shown: C[C@H]1CN(c2ccc3nc(-c4cc(F)c5nc(CF)cn5c4)ncc3c2)C[C@H](C)N1
## Result 0.1 to 1 µM

## Task Enter measured IC50, system HTT mRNA, for the compound shown: CCc1nc2cc(O)c(-c3ccc4nc(N5CC[C@H](NC(C)(C)C)C5)ccc4n3)cc2o1 (single isomer, unassigned)
## Result 1 to 10 µM

## Task Enter measured IC50, system HTT mRNA, for the compound shown: Cc1cn2nc(-c3ncc4cc(N5CCNC6(CC6)C5)ccc4n3)cc(C)c2n1
## Result > 10 µM

## Task Enter measured IC50, system HTT mRNA, for the compound shown: C[C@H]1CN(c2cc(F)c3nc(-c4cc(F)c5nn(C)cc5c4)ccc3c2)CCN1 (single isomer, unassigned)
## Result 0.1 to 1 µM

## Task Enter measured IC50, system HTT mRNA, for the compound shown: Cc1c(O)c(-c2ccc3cc(N4C[C@H](C)N[C@@H](C)C4)cc(F)c3n2)cc2cn(C)nc12 (single isomer, unassigned) [Compound 800, 2,2,2-trifluoroacetate]
## Result < 0.1 µM

## Task Enter measured IC50, system HTT mRNA, for the compound shown: C[C@H]1CN(c2ccc3nc(-c4cc(F)c5nncn5c4)ncc3c2)C[C@H](C)N1 (single isomer, unassigned)
## Result > 10 µM
